# system_tested: MICA*004 on HCC1534 cells (human, UniProt Q29983 24-383); note: test concentration or dose not given here
# assay_protocol: cell-based or functional assay
quantity_measured: % Inhibition (%)
Reply with just the number (in %).

>  <binder>
1D5v6 (antibody, IgG1, V domains shown, humanized variant of 1D5) VH: EVQLVQSGAEVKKPGASVKVSCKASGYAFTSQNIYWVRQAPGQGLEWMGYIEPYNVVPMYNPKFKGRVTMTTDTSTSTAYMELRSLRSDDTAVYYCARSGSSNFDYWGQGTLVTVSS VL: EIVLTQSPDFQSVTPKEKVTITCSASSSISSHYLHWYQQKPDQSPKLLIKRTSNLASGVPSRFSGSGSGTDFTLTINSLEAEDAATYYCQQGSSLPLTFGQGTKVEIK

>  <measurement>
47

$$$$
>  <binder>
1D5v19 (antibody, IgG1, V domains shown, humanized variant of 1D5) VH: EVQLVQSGAEVKKPGASVKVSCKASGYAFTSQNIYWVRQAPGQGLEWIGYIEPYNVVPMYNPKFKGRATLTVDKSTSTAYLELSSLRSEDTAVYYCARSGSSNFDYWGQGTLVTVSS VL: DIQLTQSPSSLSASVGDRVTITCSASSSISSHYLHWYQQKPGKSPKLLIYRTSNLASGVPSRFSGSGSGTDYTLTISSLQPEDFATYYCQQGSSLPLTFGQGTKVEIK

>  <measurement>
44

$$$$
>  <binder>
15F11v2 (antibody, IgG1, V domains shown, humanized variant of 15F11) VH: EIQLVQSGAEVKKPGASVKVSCKPSGYAFTSNNIYWVRQAPGQGLEWIGYIDPYIGRIIYNQQFKDRATLTVDKSTSTAYLELSSLRSEDTAVYYCSRSGERSNFDYWGQGTLVTVSS VL: EIVLTQSPATLSLSPGERATLSCSASSSISSNYLHWYQQKPGQAPRLLIYRTSNLASGIPARFSGSGSGTDFTLTISSLEPEDFAVYYCQQGGSLPLTFGQGTKVEIK

>  <measurement>
43

$$$$

The record that follows has no % Inhibition shown yet.
Query string: Entry under review: 1D5v3 (antibody, IgG1, V domains shown, humanized variant of 1D5) VH: EIQLVQSGAEVKKPGASVKVSCKASGYAFTSQNIYWVRQAPGQGLEWIGYIEPYNVVPMYNPKFKGRATLTVDKSTSTAYLELSSLRSEDTAVYYCARSGSSNFDYWGQGTLVTVSS VL: EIVLTQSPDFQSVTPKEKVTITCSASSSISSHYLHWYQQKPDQSPKLLIYRTSNLASGVPSRFSGSGSGTDYTLTINSLEAEDAATYYCQQGSSLPLTFGQGTKVEIK . Reported % Inhibition?
Result string: 56
